D41 body weight Mean reference
# measurement_notes: Safety assessment in vivo by body weight, CIA mice
# test_conditions: Example 3, CIA mouse, day 41; MTX 1 mg/kg ip twice/week; Xeljanz 10 mg/kg oral once/day; MTX 1 mg/kg + Q-DDS 3 mg/mouse
Please append the unit to your numeric answer.

C[C@@H]1CCN(C(=O)CC#N)C[C@@H]1N(C)c1ncnc2[nH]ccc12; 21.6 g

Now look at this entry.
Exercise: D41 body weight Mean for CN(Cc1cnc2nc(N)nc(N)c2n1)c1ccc(C(=O)N[C@@H](CCC(=O)O)C(=O)O)cc1 [Methotrexate, methotrexate] ?
Key: 23.8 g

---

D23 body weight Mean reference
# measurement_notes: Safety assessment in vivo by body weight, CIA mice
# test_conditions: Example 3, CIA mouse, day 23 (baseline); MTX 1 mg/kg ip twice/week; Xeljanz 10 mg/kg oral once/day; MTX 1 mg/kg + Q-DDS 3 mg/mouse
Express the result in g but write the number alone.

Exercise: D23 body weight Mean for CN(Cc1cnc2nc(N)nc(N)c2n1)c1ccc(C(=O)N[C@@H](CCC(=O)O)C(=O)O)cc1 [Methotrexate, methotrexate] ?
Key: 22.7

Exercise: D23 body weight Mean for C[C@@H]1CCN(C(=O)CC#N)C[C@@H]1N(C)c1ncnc2[nH]ccc12 [Xeljanz ®, Tofacitinib] ?
Key: 21.7
